Molecular target: human mGluR4 (Homo sapiens, UniProt Q14833)
Sequence (Q14833 33-912): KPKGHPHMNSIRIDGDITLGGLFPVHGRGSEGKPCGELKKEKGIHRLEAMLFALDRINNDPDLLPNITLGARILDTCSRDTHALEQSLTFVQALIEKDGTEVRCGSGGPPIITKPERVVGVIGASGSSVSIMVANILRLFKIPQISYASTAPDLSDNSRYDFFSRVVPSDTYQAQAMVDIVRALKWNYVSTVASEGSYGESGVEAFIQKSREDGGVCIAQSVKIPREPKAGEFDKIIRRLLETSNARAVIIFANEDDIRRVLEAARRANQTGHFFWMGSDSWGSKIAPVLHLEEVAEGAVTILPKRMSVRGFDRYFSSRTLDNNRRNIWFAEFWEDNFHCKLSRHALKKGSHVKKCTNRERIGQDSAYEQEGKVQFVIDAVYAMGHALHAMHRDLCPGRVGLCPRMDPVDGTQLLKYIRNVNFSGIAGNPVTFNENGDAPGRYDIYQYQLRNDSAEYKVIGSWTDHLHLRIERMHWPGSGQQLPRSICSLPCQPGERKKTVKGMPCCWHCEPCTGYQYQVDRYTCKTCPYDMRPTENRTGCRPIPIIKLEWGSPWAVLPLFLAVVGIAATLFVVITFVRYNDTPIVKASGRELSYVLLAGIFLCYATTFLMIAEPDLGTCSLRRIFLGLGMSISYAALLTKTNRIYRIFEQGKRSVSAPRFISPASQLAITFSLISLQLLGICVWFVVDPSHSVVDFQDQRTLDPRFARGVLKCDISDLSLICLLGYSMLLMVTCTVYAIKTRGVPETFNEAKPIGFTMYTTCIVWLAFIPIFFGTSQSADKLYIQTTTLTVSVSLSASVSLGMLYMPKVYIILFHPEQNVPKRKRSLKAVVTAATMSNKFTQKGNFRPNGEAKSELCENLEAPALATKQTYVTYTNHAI
Test: human mGluR4 potentiation, Ca2+-sensitive dye fluorescence assay in transfected CHO cells
Conditions: EC50 for potentiation, human mGluR4, with EC20 concentration of agonist; read-out: hEC50

[
  {
    "input.smiles": "O=C(Nc1ccc(N2C(=O)CCC2=O)c(Cl)c1)c1ccncn1",
    "result.units": "nM",
    "EC50": 10000
  },
  {
    "input.smiles": "O=C(Nc1ccc(N2C(=O)CCC2=O)c(Cl)c1)c1cccc(Cl)n1",
    "result.units": "nM",
    "EC50": 2550
  },
  {
    "input.smiles": "O=C(Nc1ccc(N2C(=O)CC3(CCCCC3)CC2=O)c(Cl)c1)c1ccccn1",
    "result.units": "nM",
    "EC50": 163
  },
  {
    "input.smiles": "O=C(Nc1ccc(N2C(=O)[C@H](c3ccccc3)[C@H](c3ccccc3)C2=O)c(Cl)c1)c1ccccn1",
    "result.units": "nM",
    "EC50": 1140
  }
]

----------
Biological target: rat mGluR4 (Rattus norvegicus, UniProt P31423)
Construct: expressed in transfected cells; host or cells: HEK cells
Sequence (P31423 33-912): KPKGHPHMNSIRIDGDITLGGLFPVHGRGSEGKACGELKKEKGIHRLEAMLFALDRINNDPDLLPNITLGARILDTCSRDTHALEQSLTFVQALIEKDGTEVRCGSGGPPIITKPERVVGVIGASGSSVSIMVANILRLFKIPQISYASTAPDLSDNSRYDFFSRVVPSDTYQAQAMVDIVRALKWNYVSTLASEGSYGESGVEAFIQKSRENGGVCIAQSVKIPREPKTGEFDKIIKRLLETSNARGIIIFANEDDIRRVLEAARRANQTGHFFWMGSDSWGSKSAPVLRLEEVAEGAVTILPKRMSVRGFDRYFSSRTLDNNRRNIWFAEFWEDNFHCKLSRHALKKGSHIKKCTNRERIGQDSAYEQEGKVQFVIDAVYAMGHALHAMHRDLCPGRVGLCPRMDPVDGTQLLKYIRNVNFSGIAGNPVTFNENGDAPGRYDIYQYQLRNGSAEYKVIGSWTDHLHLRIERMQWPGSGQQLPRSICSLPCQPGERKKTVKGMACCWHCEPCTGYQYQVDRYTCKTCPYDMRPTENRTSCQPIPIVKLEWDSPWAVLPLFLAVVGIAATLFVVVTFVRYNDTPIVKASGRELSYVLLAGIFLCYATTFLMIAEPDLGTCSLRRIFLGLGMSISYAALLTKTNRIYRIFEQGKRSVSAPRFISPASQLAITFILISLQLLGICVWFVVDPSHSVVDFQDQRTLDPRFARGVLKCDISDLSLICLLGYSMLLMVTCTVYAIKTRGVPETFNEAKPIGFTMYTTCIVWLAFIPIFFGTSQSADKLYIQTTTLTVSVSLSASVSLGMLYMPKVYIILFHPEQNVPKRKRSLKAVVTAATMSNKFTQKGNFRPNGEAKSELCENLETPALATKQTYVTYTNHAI
Experiment: rat mGluR4/GIRK potentiation, thallium responsive dye assay in co-transfected HEK cells
Assay type: cell-based
Settings: EC50 for potentiation, rat mGluR4/GIRK, with EC20 concentration of agonist; read-out: rEC50

[
  {
    "input.smiles": "O=C(Nc1ccc(N2C(=O)[C@@H]3CCCC[C@H]3C2=O)c(Cl)c1)c1ccccn1",
    "EC50 (nM)": 680
  }
]

----------
Parameter: log10 EC50. Scope: all listed entries.
Molecular target: UniProt:Q14833
Test: human mGluR4 potentiation, Ca2+-sensitive dye fluorescence assay in transfected CHO cells
Conditions: EC50 for potentiation, human mGluR4, with EC20 concentration of agonist; read-out: hEC50
reported.property: log10 EC50 (log10 of the value in nM)

[
  {
    "molecule": "O=C(Nc1ccc(N2C(=O)CCC2=O)c(Cl)c1)c1cscn1",
    "measurement": 3.94
  },
  {
    "molecule": "O=C(Nc1ccc(N2C(=O)[C@H]3CC[C@H](c4ccccc4)C[C@H]3C2=O)c(Cl)c1)c1ccccn1",
    "measurement": 3.29
  },
  {
    "molecule": "O=C(Nc1ccc(N2C(=O)C3=C(C2=O)c2ccccc2CC3)c(Cl)c1)c1ccccn1",
    "measurement": 2.40
  },
  {
    "molecule": "O=C(Nc1ccc(N2C(=O)CCC2=O)c(Cl)c1)c1nccs1",
    "measurement": 3.89
  },
  {
    "molecule": "CC1CCC2C(=O)N(c3ccc(NC(=O)c4ccccn4)cc3Cl)C(=O)C2C1 (stereo not shown)",
    "measurement": 2.76
  },
  {
    "molecule": "O=C(Nc1ccc(N2C(=O)CCC2=O)c(Cl)c1)c1ccccn1",
    "measurement": 3.77
  },
  {
    "molecule": "O=C(Nc1ccc(N2C(=O)CCC2=O)c(Cl)c1)c1cccc(F)n1",
    "measurement": 3.50
  },
  {
    "molecule": "O=C(Nc1ccc(N2C(=O)Cc3ccccc3C2=O)c(Cl)c1)c1ccccn1",
    "measurement": 2.07
  },
  {
    "molecule": "CC1(C)CC(=O)N(c2ccc(NC(=O)c3ccccn3)cc2Cl)C1=O",
    "measurement": 3.26
  },
  {
    "molecule": "O=C(Nc1ccc(N2C(=O)CC(Cc3ccccc3Cl)(c3ccccc3)C2=O)c(Cl)c1)c1ccccn1 (stereo not shown)",
    "measurement": 2.52
  }
]

----------
Target: human mGluR4 (Homo sapiens, UniProt Q14833)
Construct: expressed in transfected cells; host or cells: CHO cells
Assay: human mGluR4 potentiation, Ca2+-sensitive dye fluorescence assay in transfected CHO cells
Format: cell-based
Details: CHO; maximum extent of potentiation, human mGluR4; read-out: hGluMax
Parameter: Emax. Scope: all listed entries.
reported.property: Emax (%)

[
  {
    "compound": "O=C(Nc1ccc(N2C(=O)C3=C(C2=O)c2ccccc2CC3)c(Cl)c1)c1ccccn1",
    "assay.system": "human mGluR4 (Homo sapiens, UniProt Q14833)",
    "result.units": "%",
    "measurement": 276
  },
  {
    "compound": "O=C(Nc1ccc(N2C(=O)[C@H]3CC[C@H](c4ccccc4)C[C@H]3C2=O)c(Cl)c1)c1ccccn1",
    "assay.system": "human mGluR4 (Homo sapiens, UniProt Q14833)",
    "result.units": "%",
    "measurement": 209
  },
  {
    "compound": "O=C(Nc1ccc(N2C(=O)C3[C@H]4C=C[C@H](C4)[C@H]3C2=O)c(Cl)c1)c1ccccn1 (stereo partly shown)",
    "assay.system": "human mGluR4 (Homo sapiens, UniProt Q14833)",
    "result.units": "%",
    "measurement": 211
  },
  {
    "compound": "CC1(C)CC(=O)N(c2ccc(NC(=O)c3ccccn3)cc2Cl)C1=O",
    "assay.system": "human mGluR4 (Homo sapiens, UniProt Q14833)",
    "result.units": "%",
    "measurement": 155
  }
]

----------
Target: human mGluR4 (Homo sapiens)
Construct: expressed in transfected cells; host or cells: CHO cells
Assay: human mGluR4 potentiation, Ca2+-sensitive dye fluorescence assay in transfected CHO cells
Type: cell-based
Conditions: CHO; maximum extent of potentiation, human mGluR4; read-out: hGluMax
Text: The disclosed compounds and compositions can be evaluated for their ability to act as a potentiator of metabotropic glutamate receptor activity, in particular mGluR4 activity, by any suitable known methodology known in the art. […] The cells were loaded with either a Ca2+-sensitive fluorescent dye or the thallium responsive dye and the plates were washed and placed into a suitable kinetic plate reader. […]
Quick rule: Emax of at least 60% means true (1), below that means false (0).

[
  {
    "compound": "CC1CCC2C(=O)N(c3ccc(NC(=O)c4ccccn4)cc3Cl)C(=O)C2C1 (stereo not drawn)",
    "assay.system": "human mGluR4 (Homo sapiens)",
    "classification": "true (1)"
  },
  {
    "compound": "O=C(Nc1ccc(N2C(=O)CCC2=O)c(Cl)c1)c1cccc(F)n1",
    "assay.system": "human mGluR4 (Homo sapiens)",
    "classification": "false (0)"
  },
  {
    "compound": "O=C(Nc1ccc(N2C(=O)CC(c3ccccc3)C2=O)c(Cl)c1)c1ccccn1 (stereo not drawn)",
    "assay.system": "human mGluR4 (Homo sapiens)",
    "classification": "true (1)"
  },
  {
    "compound": "O=C(Nc1ccc(N2C(=O)CCC2=O)c(Cl)c1)c1nccs1",
    "assay.system": "human mGluR4 (Homo sapiens)",
    "classification": "true (1)"
  },
  {
    "compound": "CC1(c2ccccc2)CC(=O)N(c2ccc(NC(=O)c3ccccn3)cc2Cl)C1=O (stereo not drawn)",
    "assay.system": "human mGluR4 (Homo sapiens)",
    "classification": "true (1)"
  },
  {
    "compound": "O=C(Nc1ccc(N2C(=O)CCC2=O)c(Cl)c1)c1cscn1",
    "assay.system": "human mGluR4 (Homo sapiens)",
    "classification": "true (1)"
  },
  {
    "compound": "O=C(Nc1ccc(N2C(=O)CCC2=O)c(Cl)c1)c1ccncn1",
    "assay.system": "human mGluR4 (Homo sapiens)",
    "classification": "false (0)"
  },
  {
    "compound": "O=C(Nc1ccc(N2C(=O)[C@@H]3[C@H](C2=O)[C@@H]2C=C[C@H]3CC2)c(Cl)c1)c1ccccn1",
    "assay.system": "human mGluR4 (Homo sapiens)",
    "classification": "true (1)"
  },
  {
    "compound": "O=C(Nc1ccc(N2C(=O)[C@H](c3ccccc3)[C@H](c3ccccc3)C2=O)c(Cl)c1)c1ccccn1",
    "assay.system": "human mGluR4 (Homo sapiens)",
    "classification": "true (1)"
  }
]

----------
Biological target: rat mGluR4 (Rattus norvegicus, UniProt P31423)
Construct: expressed in transfected cells; host or cells: HEK cells
Test: rat mGluR4/GIRK potentiation, thallium responsive dye assay in co-transfected HEK cells
Type: cell-based

[
  {
    "compound": "O=C(Nc1ccc(N2C(=O)CC(c3ccccc3)C2=O)c(Cl)c1)c1ccccn1 (stereo not shown) [Example 3]",
    "assay.system": "rat mGluR4 (Rattus norvegicus, UniProt P31423)",
    "EC50 (nM)": 690
  }
]

----------
Biological target: rat mGluR4 (Rattus norvegicus)
Construct: expressed in transfected cells; host or cells: HEK cells
Experiment: rat mGluR4/GIRK potentiation, thallium responsive dye assay in co-transfected HEK cells
Assay type: cell-based
Details: maximum extent of potentiation, rat mGluR4/GIRK

[
  {
    "molecule": "O=C(Nc1ccc(N2C(=O)CC(c3ccccc3)C2=O)c(Cl)c1)c1ccccn1 (stereo not shown) [Example 3]",
    "rGluMax": 128.7
  },
  {
    "molecule": "O=C(Nc1ccc(N2C(=O)[C@@H]3CCCC[C@H]3C2=O)c(Cl)c1)c1ccccn1 [Example 8]",
    "rGluMax": 123.3
  },
  {
    "molecule": "O=C(Nc1ccc(N2C(=O)CC3(CCCCC3)C2=O)c(Cl)c1)c1ccccn1 [Example 15]",
    "rGluMax": 86.1
  },
  {
    "molecule": "O=C(Nc1ccc(N2C(=O)C3[C@H]4C=C[C@H](C4)[C@H]3C2=O)c(Cl)c1)c1ccccn1 (stereo partly shown) [Example 2]",
    "rGluMax": 110.2
  }
]

All values here come from patent US8759377B2.
